Collected set of IC50 measured with MAPK1(ERK2) enzyme (Homo sapiens) across studies.

Task: # get_value(readout='IC50', item= Cc1cnc(Nc2ccc3c(c2)OC(F)(F)O3)cc1-n1cc(C(=O)NC(CN)Cc2ccccc2)nn1 (stereo not shown) )
Result: 0.5 to 2.5 µM

Task: # get_value(readout='IC50', item= N#CC(c1ccnc(NCCO)n1)c1nc2ccccc2s1 (stereo not shown) )
Result: > 30 µM

Task: # get_value(readout='IC50', item= CNC[C@@H](NC(=O)c1nc2cc3c(-c4ccncc4)n[nH]c3cc2[nH]1)c1ccccc1 )
Result: 0.00017 µM

Task: # get_value(readout='IC50', item= Cn1nccc1Nc1cc(-c2cc3n(c2)C[C@H](F)Cn2c-3nnc2C(F)(F)n2cc(F)cn2)c(Cl)cn1 )
Result: 0.005 to 0.01 µM
